- TGT: protein kinase B, P31749
- Sequence (P31749 whole entry): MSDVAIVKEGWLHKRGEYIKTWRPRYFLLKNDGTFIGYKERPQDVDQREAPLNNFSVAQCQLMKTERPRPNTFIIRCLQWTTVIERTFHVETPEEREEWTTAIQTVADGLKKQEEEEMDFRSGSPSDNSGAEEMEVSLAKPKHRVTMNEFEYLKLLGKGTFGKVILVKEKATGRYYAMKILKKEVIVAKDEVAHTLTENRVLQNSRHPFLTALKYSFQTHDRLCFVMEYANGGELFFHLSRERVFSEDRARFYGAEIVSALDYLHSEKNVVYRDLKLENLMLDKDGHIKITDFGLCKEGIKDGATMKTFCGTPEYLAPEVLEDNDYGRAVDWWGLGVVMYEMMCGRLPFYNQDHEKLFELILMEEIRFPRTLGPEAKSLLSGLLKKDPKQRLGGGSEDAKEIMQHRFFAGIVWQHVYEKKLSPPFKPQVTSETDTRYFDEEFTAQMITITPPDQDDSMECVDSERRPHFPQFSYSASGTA
- TEST_SUMMARY: cell-based or functional assay
Where no end group is shown, it is not given here. Side-chain parts run from the residue outwards. [ ]: non-standard residue; d: D form. The star is where a group is joined. O‑CO‑N‑SO2‑IQ = carbamate-linked N-sulfonyl 5-aminoethylsulfonamide isoquinoline (O-CO-N-SO2-IQ); SO2‑IQ = 5-aminoethylsulfoneamide isoquinoline, O=S(=O)(NCCN*)c1cccc2cnccc12; hLeu = CC(C)CC[C@H](N)C(=O)O; Nle = CCCC[C@H](N)C(=O)O; Orn = NCCC[C@H](N)C(=O)O; bGaba = not defined here; Nva = CCC[C@H](N)C(=O)O; Abu = CC[C@H](N)C(=O)O; Dap = NC[C@H](N)C(=O)O; βAla = NCCC(=O)O
ENDPOINT_NAME: PKB IC50 (µM)
Numeric only. Scale: µM

> print(dat)
                                     binder  measured.value
1  RPR[Nle]E([βAla-SO2‑IQ])[Abu]F [PTR 6138]               2
2     RPR[Nle]E([βAla-SO2‑IQ])SF [PTR 6086]            0.57
3                RPRTD(SO2‑IQ)SF [PTR 6130]             9.5
4  RPR[Nle]E([βAla-SO2‑IQ])S[Nle] [PTR 6096]            0.93
5         RPRTE([βAla-SO2‑IQ])SF [PTR 6082]            5.54

Query: PKB IC50 for RPRT[Dap]SF (not fully specified (residue 5)) [PTR 6106] ?
Reply: 10

Query: # get_value(readout='PKB IC50', item= RPR[Nva]E([βAla-SO2‑IQ])A[hLeu] [PTR 6152] )
Reply: 5

Query: Recorded PKB IC50 of RPR[Nle]E(SO2‑IQ)SF [PTR 6128] , please.
Reply: 9

Query: PKB IC50 for RPRTSE(SO2‑IQ)F [PTR 6014] ?
Reply: 25

Query: Tell me the measured PKB IC50 of RPRTS[Abu]F-{O‑CO‑N‑SO2‑IQ} (not fully specified; printed as Arg-Pro-Arg-Thr-Ser-Abu-Phe-(O-CO-N-SO2-IQ)) [PTR 6013] , please.
Reply: 4

Query: I have this binder here, RPR[Orn]E([bGaba-SO2‑IQ])SF (reading uncertain) [PTR 6088] , and I need its recorded PKB IC50.
Reply: 1.18

Query: Would you kindly share the measured PKB IC50 for RPR[Nva]E(SO2‑IQ)A[hLeu] [PTR 6150] ?
Reply: 25

// data source = patent US7407939
